// reported Vd per item
assay: Rat PK study (IV 1 mg/kg and PO 5 mg/kg); format: in vivo, male SD rats; conditions: male, SD, rat, plasma, 1 mg/kg; IV, dose 1 mpk; read-out: IV Vz
Response body: numeric value in L/kg, unit text excluded.

1) Cn1c(-c2cccc(NC(=O)C(=O)Nc3ccc(-c4ccsc4)cc3)c2)c(I)c2cc(C(=O)O)c(O)cc21 [Example 11a-1, reference compound] ... 1.42
2) CC1(n2c(-c3ccc(NC(=O)C(=O)Nc4ccc(N5CCC6(CCOC6)CC5)cc4)cc3)cc3cc(F)c(-c4nnn[nH]4)cc32)CCC1 ... 1.57

-- ask Suppose we examine the compound O=C(Nc1ccc(-c2cc3cc(F)c(-c4nnn[nH]4)cc3n2C2CCC2)cc1)C(=O)Nc1ccc(N2CCC(CO)CC2)cc1 ; what Vd value has been reported?
-- reply 4.01
